// molecules with IC50 on ROCK2 (Homo sapiens, UniProt O75116), multi-source literature

// solved cases for IC50 follow
{"molecule": "COc1cc(-n2c(C)nn(Cc3ccccc3)c2=O)ccc1-c1cn[nH]c1", "IC50": "250 to 2000 nM"}
{"molecule": "COc1nc(N2CC3(CCN(C(=O)CC(C)c4ccccc4)CC3)N(Cc3cccc(F)c3C)C2=O)ccc1-c1cn[nH]c1 (centres unmarked)", "IC50": "3 to 30 nM"}
{"molecule": "O=C(NC1CC2(C1)CC(c1n[nH]c(=O)c3ccccc13)C2)c1cnn2cc(O)ccc12 (centres unmarked)", "IC50": "2.01 to 5 nM"}

Consider the additional molecule presented here.
Record summary for COCCN1CCC2(CC1)CN(c1ccc(-c3cn[nH]c3)cn1)C(=O)N2Cc1cccc(OC)c1 : reported IC50 = < 3 nM

###

pIC50: −log10 of the molar value.
// compounds with pIC50 on ROCK2 (Homo sapiens), multi-source literature

{"compound": "O=C1N(Cc2ccc(Cl)c(Cl)c2)CCN1c1ccc(-c2cn[nH]c2)cn1", "target.desc": "ROCK2 (Homo sapiens)", "pIC50": "5.70 to 6.70"}
{"compound": "Cc1nnc(NC(=O)C2CC3(C2)CC(c2n[nH]c(=O)c4ccccc24)C3)s1 (stereo not shown)", "target.desc": "ROCK2 (Homo sapiens)", "pIC50": "5.68 to 7.00"}
{"compound": "O=C1N(Cc2cc(F)cc(F)c2)CCN1c1ccc2c(n1)OCc1n[nH]cc1-2", "target.desc": "ROCK2 (Homo sapiens)", "pIC50": "7.00 to 8.00"}

Consider the additional compound presented here.
Tested system ROCK2 (Homo sapiens); pIC50 recorded for Cc1nc(Nc2ccc(-c3cn[nH]c3)cc2)nc(N2CCc3cc(C(=O)N4CC(F)(F)C4)n(C)c3C2)n1 was 6.30 to 7.30

###

// compounds with IC50 on ROCK2 (Homo sapiens, UniProt O75116), multi-source literature

// solved cases for IC50 follow
{"compound": "CNC(=O)C(c1cccc(OC)c1)N1CCN(c2ccc(-c3cn[nH]c3)cc2)C1=O (single isomer, unassigned)", "recorded.result": "20.1 to 200 nM"}
{"compound": "[H][C@]1(c2n[nH]c(=O)c3ccccc32)C[C@]2(C[C@@H](NC(=O)c3ccc(N4CCCC4)cn3)C2)C1 (some centres unmarked)", "recorded.result": "15.1 to 100 nM"}
{"compound": "[H][C@]1(c2n[nH]c(=O)c3ccccc32)C[C@]2(C[C@@H](NC(=O)c3ccc(CCN4CCCC4)nc3)C2)C1 (some centres unmarked)", "recorded.result": "100 to 2100 nM"}
{"compound": "COc1cccc(CN2C(=O)N(c3ccc(-c4cn[nH]c4)cn3)CC23CCN(C(=O)C(F)F)CC3)c1", "recorded.result": "3 to 30 nM"}
{"compound": "O=C(NC1CCCC1)c1cc(F)cc(C(CO)NC(=O)N2CCc3cc(-c4cn[nH]c4)c(F)cc32)c1 (centres unmarked)", "recorded.result": "≤ 50 nM"}
{"compound": "CC(C)COc1cccc(CN2CCN(c3ccc(-c4cn[nH]c4)cn3)C2=O)c1", "recorded.result": "20.1 to 200 nM"}
{"compound": "[H][C@]1(c2n[nH]c(=O)c3ccccc32)C[C@]2(C[C@@H](NC(=O)c3cnc4cc(N(C)CCOC)ccn34)C2)C1 (some centres unmarked)", "recorded.result": "0.2 to 2 nM"}

Tested system ROCK2 (Homo sapiens, UniProt O75116); IC50 recorded for COc1cc(-n2cnn(C(C)c3ccccc3)c2=O)ccc1-c1cn[nH]c1 (centres unmarked) was 250 to 2000 nM

###

// molecules with IC50 on ROCK2 (Homo sapiens), multi-source literature

{"molecule": "CC(C)NC(=O)COc1ccc(-n2nc(Nc3ccc4[nH]ncc4c3)c3ccccc32)cc1", "target.desc": "ROCK2 (Homo sapiens)", "IC50": "0.3 to 3 µM"}
{"molecule": "CC(c1ccccc1)n1cnn(-c2ccc(-c3cn[nH]c3)cc2)c1=O (stereo not shown)", "target.desc": "ROCK2 (Homo sapiens)", "IC50": "< 0.005 µM"}
{"molecule": "COc1cccc(CN2C(=O)N(c3ncc(-c4cn[nH]c4)c(OC)n3)CC23CCN(C(=O)C(C)(C)O)CC3)c1", "target.desc": "ROCK2 (Homo sapiens)", "IC50": "0.003 to 0.03 µM"}

Consider the additional molecule presented here.
Tested system ROCK2 (Homo sapiens); IC50 recorded for COc1cc(F)cc(OC2CCN(c3ccc(-c4n[nH]c(=O)c5ccccc45)cc3)C2=O)c1 (stereo not shown) was 0.01 to 0.1 µM

###

pIC50: −log10 of the molar value.
// compounds with pIC50 on ROCK2 (Homo sapiens, UniProt O75116), multi-source literature
measurement.type: pIC50

{"compound": "COc1cc(C(=O)NCc2ccc(Cl)cc2Cl)ccc1-c1cn[nH]c1", "target.desc": "ROCK2 (Homo sapiens, UniProt O75116)", "pIC50": 7.56}

[I] Cn1ncc2cc(C(N)=O)c(O[C@H]3C[C@@]4(C[C@H](NC(=O)c5nnc(-c6ccc(F)cc6F)s5)C4)C3)nc21 (stereo partly shown)
[II] COC(=O)c1ccc(C(=O)N2CCC3(CC2)CCN(c2ccc(-c4cn[nH]c4)c(OC)c2)C3=O)cc1
[III] COC[C@H](NC(=O)c1ccc(-c2cn[nH]c2)c(OC)c1)[C@@H](O)c1ccccc1
Arrange items by their pIC50 values in increasing order. Write the labels, ordered according to the request.
III, II, I
(III: 6.48, II: 7.64, I: 7.87)

###

// molecules with pIC50 on ROCK2 (Homo sapiens), multi-source literature
pIC50: −log10 of the molar value.

// solved cases for pIC50 follow
{"molecule": "COc1ccc(C(=O)N[C@H](C)c2cccc(C(=O)NCC3CCN(C(C)C)CC3)c2)cc1C", "pIC50": 6.98}
{"molecule": "CCc1cc(N2CCN(Cc3cccc(OC)c3)C2=O)ncc1-c1cn[nH]c1", "pIC50": "5.70 to 6.70"}
{"molecule": "[H][C@]1(c2n[nH]c(=O)c3ccccc32)C[C@]2(C[C@@H](NC(=O)c3ccc(OC(C)C)c(C#N)c3)C2)C1 (some centres unmarked)", "pIC50": "7.82 to 8.29"}
{"molecule": "Cn1cc(C(=O)Nc2cccc(-n3nc(Nc4ccc5[nH]ncc5c4)c4ccccc43)n2)cn1", "pIC50": "> 6.52"}

Tested system ROCK2 (Homo sapiens); pIC50 recorded for [H][C@]1(c2n[nH]c(=O)c3ccccc32)C[C@]2(C[C@@H](NC(=O)c3[nH]c4c(OC)cccc4c3C)C2)C1 (some centres unmarked) was 7.00 to 7.82

Tested system ROCK2 (Homo sapiens); pIC50 recorded for O=C(NC1CC2(C1)CC(c1n[nH]c(=O)c3ccccc13)C2)c1cnn2cc(CCCN3CCCC3)ccc12 (centres unmarked) was 8.30 to 8.70

Tested system ROCK2 (Homo sapiens); pIC50 recorded for CC(=O)C1CN(C(=O)c2cc3ccc(-c4nccc(Nc5ccc(-c6cn[nH]c6)cc5)n4)cc3n2C)C1 was 7.04

###

// molecules with IC50 on ROCK2 (Homo sapiens, UniProt O75116), multi-source literature

{"molecule": "[H][C@]1(c2n[nH]c(=O)c3ccccc32)C[C@]2(C[C@@H](NC(=O)c3cnc4ccc(F)cn34)C2)C1 (stereo partly shown)", "IC50": "2.01 to 5 nM"}
{"molecule": "CCc1cc(-n2ncn(Cc3c(F)cccc3F)c2=O)ccc1-c1cn[nH]c1", "IC50": "250 to 2000 nM"}
{"molecule": "O=C(NC1CC2(C1)CC(c1n[nH]c(=O)c3ccccc13)C2)c1cnc(N2CCCC2)s1 (stereo not shown)", "IC50": "2.01 to 5 nM"}
{"molecule": "O=c1n(Cc2cccc(OC(F)F)c2)ccn1-c1ccc(-c2cn[nH]c2)cc1", "IC50": "2.1 to 20 nM"}
{"molecule": "COc1cccc(CN2C(=O)N(c3ccc(-c4cn[nH]c4)cc3)CC23CCN(CCC(F)(F)F)CC3)c1", "IC50": "< 3 nM"}

Tested system ROCK2 (Homo sapiens, UniProt O75116); IC50 recorded for CN(C)Cc1cc(F)cc(CNC(=O)c2ncn3cc(-c4cn[nH]c4)ccc23)c1 was 50 to 500 nM

Tested system ROCK2 (Homo sapiens, UniProt O75116); IC50 recorded for COCCOC(=O)c1cccc(C(=O)Nc2cccc(CNC3CCC(Nc4cccc5cnccc45)CC3)c2)c1 (stereo not shown) was < 100 nM

Tested system ROCK2 (Homo sapiens, UniProt O75116); IC50 recorded for COc1ccc(-c2ccc3c(C(=O)NC4CC5(C4)CC(c4n[nH]c(=O)c6ccccc46)C5)nn(CC(C)(C)O)c3c2)cc1 (stereo not shown) was 2.01 to 5 nM

Tested system ROCK2 (Homo sapiens, UniProt O75116); IC50 recorded for N#Cc1cccc(CN2C(=O)N(c3ccc(-c4cn[nH]c4)cc3)CC23CCOCC3)c1 was 30 to 250 nM
